- system_under_test: PDGFRα (Homo sapiens (Human))
- Sequence (P16234 24-1089): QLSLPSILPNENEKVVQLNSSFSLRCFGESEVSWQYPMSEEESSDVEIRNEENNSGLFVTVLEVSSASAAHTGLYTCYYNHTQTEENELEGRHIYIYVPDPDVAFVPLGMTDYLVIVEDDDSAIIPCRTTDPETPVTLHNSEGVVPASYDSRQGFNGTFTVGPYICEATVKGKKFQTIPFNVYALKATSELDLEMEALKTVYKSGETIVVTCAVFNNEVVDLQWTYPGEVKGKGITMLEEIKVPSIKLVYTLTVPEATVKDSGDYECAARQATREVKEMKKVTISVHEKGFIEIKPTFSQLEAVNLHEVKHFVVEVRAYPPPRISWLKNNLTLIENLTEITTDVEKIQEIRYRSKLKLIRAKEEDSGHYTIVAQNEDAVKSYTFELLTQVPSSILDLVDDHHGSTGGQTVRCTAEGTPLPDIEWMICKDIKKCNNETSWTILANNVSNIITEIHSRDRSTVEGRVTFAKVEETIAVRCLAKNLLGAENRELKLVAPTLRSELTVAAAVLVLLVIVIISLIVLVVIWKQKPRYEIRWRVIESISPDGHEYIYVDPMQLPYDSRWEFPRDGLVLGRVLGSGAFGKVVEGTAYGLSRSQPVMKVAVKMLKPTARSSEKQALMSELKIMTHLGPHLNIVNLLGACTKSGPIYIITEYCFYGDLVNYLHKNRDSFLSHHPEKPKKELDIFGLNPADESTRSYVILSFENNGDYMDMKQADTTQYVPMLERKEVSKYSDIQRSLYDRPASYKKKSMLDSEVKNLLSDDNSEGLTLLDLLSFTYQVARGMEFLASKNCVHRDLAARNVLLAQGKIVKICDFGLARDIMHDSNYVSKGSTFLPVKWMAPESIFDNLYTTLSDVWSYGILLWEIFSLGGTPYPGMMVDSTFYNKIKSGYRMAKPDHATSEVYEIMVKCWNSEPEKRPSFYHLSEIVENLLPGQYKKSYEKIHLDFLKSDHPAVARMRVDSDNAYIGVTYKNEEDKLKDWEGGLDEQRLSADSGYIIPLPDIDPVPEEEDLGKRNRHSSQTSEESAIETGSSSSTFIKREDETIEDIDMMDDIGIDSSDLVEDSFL
- protocol_summary: PDGFRα kinase enzyme assay (Promega PDGFRα Kinase Enzyme System, ADP-Glo)
- Format: biochemical
- condition_details: 11-point dose response, 10,000 nM to 0.169 nM; 150 uM ATP; BLQ = below limit of quantitation; read-out: IC50 Values on PDGFRα Kinase Inhibition, IC50
pIC50: −log10 of the molar value.
measured_endpoint: pIC50

- structure_string: "Cn1cc(-c2ccc3c(N4CCN(C(=O)OCc5cccc(C#N)c5)CC4)cnn3c2)cn1"
  measured_endpoint: "pIC50"
  observed_value: 6.06
- structure_string: "Cn1cc(-c2ccc3c(C4CCN(c5ncc(Cc6ccccc6)cn5)CC4)cnn3c2)cn1"
  measured_endpoint: "pIC50"
  observed_value: 5.96
- structure_string: "CN(Cc1ccccc1)C(=O)N1CCN(c2cnn3cc(-c4cnn(C)c4)ccc23)CC1"
  measured_endpoint: "pIC50"
  observed_value: 5.83
- structure_string: "Cn1cc(-c2ccc3c(N4CCN(c5ncn(Cc6ccccc6)n5)CC4)cnn3c2)cn1"
  measured_endpoint: "pIC50"
  observed_value: 6.61

###

- system_under_test: PDGFRα (Homo sapiens (Human))
- protocol_summary: PDGFRα kinase enzyme assay (Promega PDGFRα Kinase Enzyme System, ADP-Glo)
- Type: biochemical
- condition_details: 11-point dose response, 10,000 nM to 0.169 nM; 150 uM ATP; BLQ = below limit of quantitation; read-out: IC50 Values on PDGFRα Kinase Inhibition, IC50
Quick list: IC50 per entry.

- molecule: "Cn1cc(-c2ccc3c(N4CCN(c5ncc(C(O)c6ccccc6)o5)CC4)cnn3c2)cn1 (centres unmarked) [Compound 248]"
  units: "µM"
  value_prefix: "="
  IC50: 1.19
- molecule: "CC(C)(C)OC(=O)N1CCN(c2cnc3nc(C4CCOC4)ccn23)CC1 (centres unmarked) [Compound 103]"
  units: "µM"
  value_prefix: ">"
  IC50: 10
- molecule: "Cn1cc(-c2ccc3c(N4CCN(C(=O)OC5CC(F)(F)C5)CC4)cnn3c2)cn1 [Compound 307]"
  units: "µM"
  value_prefix: "="
  IC50: 2.15
- molecule: "Cn1cc(-c2ccc3c(N4CCN(c5ccc(C(O)c6ccccc6)nc5)CC4)cnn3c2)cn1 (centres unmarked) [Compound 241]"
  units: "µM"
  value_prefix: "="
  IC50: 0.974
- molecule: "Cn1cc(-c2ccc3c(N4CCN(c5ncc(C(CO)c6ccc(F)cc6)cn5)CC4)cnn3c2)cn1 (centres unmarked) [Compound 257]"
  units: "µM"
  value_prefix: "="
  IC50: 0.0798
- molecule: "CN(CCN(C)c1cnc2nc(-c3cnn(C)c3)ccn12)C(=O)OC(C)(C)C [Compound 108]"
  units: "µM"
  value_prefix: ">"
  IC50: 10
- molecule: "C[C@@H](OC(=O)N1CCN(c2cnn3cc(-c4cnn(C)c4)ccc23)CC1)c1ccc(OC(F)(F)F)cc1 [Compound 268]"
  units: "µM"
  value_prefix: "="
  IC50: 0.0118
- molecule: "Cn1cc(-c2ccn3c(N4CCN(C(=O)NCc5ccc(C(F)(F)F)cc5)CC4)cnc3n2)cn1 [Compound 119]"
  units: "µM"
  value_prefix: "="
  IC50: 1.71

###

Quick list: GPR17 Fold Induction (Over Vehicle; 3 μM) per entry.
- System: Oligodendrocyte progenitor cells (OPCs)
- protocol_summary: In vitro OPC differentiation assay, GPR17 expression (immunocytochemistry)
- condition_details: 3 μM (10× concentration, final 0.3 μM); 72 hours; fold change over vehicle
measured_endpoint: GPR17 Fold Induction (Over Vehicle; 3 μM)

- molecule: "Cn1cc(-c2ccc3c(N4CCN(C(=O)NCc5ccc(Cl)cc5)CC4)cnn3c2)cn1 [Compound 275]"
  system_under_test: "Oligodendrocyte progenitor cells (OPCs)"
  observed_value: 6.70
- molecule: "CCC(CC)Cc1cnc(N2CCN(c3cnn4cc(-c5cnn(C)c5)ccc34)CC2)nc1 [Compound 153]"
  system_under_test: "Oligodendrocyte progenitor cells (OPCs)"
  observed_value: 6.37
- molecule: "Cn1cc(-c2ccc3c(N4CCN(c5ncc(Cc6ccc(F)cc6)cn5)CC4)cnn3c2)cn1 [Compound 66]"
  system_under_test: "Oligodendrocyte progenitor cells (OPCs)"
  observed_value: 5.07
- molecule: "Cn1cc(-c2ccc3c(C4CCN(c5ncc(Cc6ccccc6)cn5)CC4)cnn3c2)cn1 [Compound 63]"
  system_under_test: "Oligodendrocyte progenitor cells (OPCs)"
  observed_value: 8.97

###

- Test system: Oligodendrocyte progenitor cells (OPCs)
- protocol_summary: In vitro OPC differentiation assay, GPR17 expression (immunocytochemistry)
- condition_details: 3 μM (10× concentration, final 0.3 μM); 72 hours; fold change over vehicle
measured_endpoint: GPR17 Fold Induction (Over Vehicle; 3 μM)

- compound: "Cn1cc(-c2ccc3c(N4CCN(c5ncc(C(O)c6ccc(F)cc6)cn5)CC4)cnn3c2)cn1 (centres unmarked)"
  observed_value: 13.87
- compound: "Cn1cc(-c2ccc3c(CCc4ncc(Cc5ccccc5)cn4)cnn3c2)cn1"
  observed_value: 1.15
- compound: "CN(CCN(C)c1cnc2cc(-c3cccnc3)ncn12)C(=O)OC(C)(C)C"
  observed_value: 0.62
- compound: "CC(C)(C)OC(=O)N1CCN(c2cnc3nc(-c4cccnc4)ccn23)CC1"
  observed_value: 0.58
- compound: "Cn1cc(-c2ccc3c(N4CCN(c5ncc(CC6CCCCO6)cn5)CC4)cnn3c2)cn1 (centres unmarked)"
  observed_value: 9.26
- compound: "Cn1cc(-c2ccc3c(N4CCN(C(=O)OC(C)(C)C)CC4)cnn3n2)cn1"
  observed_value: 1.39
- compound: "CC(=O)OC(c1ccc(F)cc1)c1cnc(N2CCN(c3cnn4cc(-c5cnn(C)c5)ccc34)CC2)nc1 (centres unmarked)"
  observed_value: 6.72
- compound: "Cn1cc(-c2ccc3c(C4CCC(C(=O)OCc5ccccc5)CC4)cnn3c2)cn1 (centres unmarked)"
  observed_value: 3.64

###

- System: Oligodendrocyte progenitor cells (OPCs)
- protocol_summary: In vitro OPC differentiation assay, MBP expression (immunocytochemistry)
- condition_details: 72 hours of treatment; fold change over vehicle
Assign YES whenever MBP Fold Induction (Over vehicle) does not fall below 10; assign NO whenever it does.

- compound: "Cn1cc(-c2ccc3c(N4CCN(c5ncc(Cc6ccc(F)cc6)cn5)CC4)cnn3c2)cn1"
  category_label: "YES"
- compound: "Cn1cc(-c2ccc3c(N4CCN(c5ncc(Cc6ccccc6)cn5)CC4)cnn3c2)cn1"
  category_label: "NO"
- compound: "Cc1ccc([C@@H](C)OC(=O)N2CCN(c3cnn4cc(-c5cnn(C)c5)ccc34)CC2)cc1"
  category_label: "NO"
- compound: "Cn1cc(-c2ccc3c(N4CCN(c5ncc(C(O)c6ccccc6)o5)CC4)cnn3c2)cn1 (centres unmarked)"
  category_label: "YES"
- compound: "Cn1cc(-c2ccc3c(N4CCN(c5ncc(Cc6c[nH]c7ccccc67)cn5)CC4)cnn3c2)cn1"
  category_label: "NO"
- compound: "Cn1cc(-c2cnc3c(N4CCN(c5ncc(Cc6ccccc6)cn5)CC4)cnn3c2)cn1"
  category_label: "NO"
- compound: "CC(C)n1cc(-c2ccc3c(N4CCN(C(=O)OC(C)(C)C)CC4)cnn3c2)cn1"
  category_label: "YES"
- compound: "COc1ccc(Cc2cnc(N3CCN(c4cnn5cc(-c6cnn(C)c6)ccc45)CC3)nc2)cc1"
  category_label: "NO"
- compound: "Cn1cc(-c2ccc3c(N4CCN(C(=O)OC5CCC5)CC4)cnn3c2)cn1"
  category_label: "NO"
- compound: "Cn1cc(-c2ccn3c(N4CCN(c5ncc(Cc6ccccc6)cn5)CC4)cnc3c2)cn1"
  category_label: "NO"
- compound: "CCC(CC)C(O)c1cnc(N2CCN(c3cnn4cc(-c5cnn(C)c5)ccc34)CC2)nc1 (centres unmarked)"
  category_label: "YES"
- compound: "Cn1cc(-c2ccc3c(N4CCN(C(=O)OCCc5ccccc5)CC4)cnn3c2)cn1"
  category_label: "NO"
- compound: "Cn1cc(-c2ccc3c(N4CCN(C(=O)OCC(C)(C)C)CC4)cnn3c2)cn1"
  category_label: "NO"
- compound: "C[C@@H](OC(=O)N1CCN(c2cnn3cc(-c4cnn(C)c4)ccc23)CC1)c1ccc(F)c(F)c1"
  category_label: "YES"
- compound: "Cn1cc(-c2ccc3c(N4CCN(C(=O)NCc5ccc(Cl)cc5)CC4)cnn3c2)cn1"
  category_label: "NO"
- compound: "Cn1cc(-c2ccc3c(N4CCN(c5ncc(C(O)c6ccccc6)cn5)CC4)cnn3c2)cn1 (centres unmarked)"
  category_label: "YES"
- compound: "Cn1cc(-c2ccc3c(N4CCN(c5ncc(C(O)Cc6ccccc6)cn5)CC4)cnn3c2)cn1 (centres unmarked)"
  category_label: "YES"
- compound: "Cn1cc(-c2ccc3c(N4CCN(C(=O)OCCC5CCOCC5)CC4)cnn3c2)cn1"
  category_label: "NO"
- compound: "COC(c1ccc(F)cc1)c1cnc(N2CCN(c3cnn4cc(-c5cnn(C)c5)ccc34)CC2)nc1 (centres unmarked)"
  category_label: "YES"
- compound: "Cn1cc(-c2ccc3c(N4CCN(C(=O)OCc5cccc(C#N)c5)CC4)cnn3c2)cn1"
  category_label: "YES"
- compound: "Cn1cc(-c2ccc3c(N4CCN(C(=O)OCc5ccc(C#N)cc5)CC4)cnn3c2)cn1"
  category_label: "YES"
- compound: "Cn1cc(-c2ccc3c(N4CCN(C(=O)O[C@@H](c5ccccc5)C(F)(F)F)CC4)cnn3c2)cn1"
  category_label: "NO"
- compound: "Cn1cc(-c2cnc3c(N4CCN(c5ncc(C(O)c6ccc(F)cc6)cn5)CC4)cnn3c2)cn1 (centres unmarked)"
  category_label: "NO"
- compound: "CC(C)C(O)c1cnc(N2CCN(c3cnn4cc(-c5cnn(C)c5)ccc34)CC2)nc1 (centres unmarked)"
  category_label: "NO"
- compound: "Cn1cc(-c2ccc3c(N4CCN(c5ncccn5)CC4)cnn3c2)cn1"
  category_label: "NO"
- compound: "Cn1cc(-c2ccc3c(N4CCN(c5ncc(Cc6ccc(Cl)cc6)cn5)CC4)cnn3c2)cn1"
  category_label: "NO"
- compound: "C[C@@H](OC(=O)N1CCN(c2cnn3cc(-c4cnn(C)c4)ccc23)CC1)c1ccccn1"
  category_label: "YES"
- compound: "c1ccc(Cc2cnc(N3CCN(c4cnn5cc(-c6cn[nH]c6)ccc45)CC3)nc2)cc1"
  category_label: "NO"
- compound: "Cn1cc(-c2ccc3c(N4CCN(c5ncc(C(O)c6ccc(F)cc6)cn5)CC4)cnn3c2)cn1 (centres unmarked)"
  category_label: "NO"
- compound: "CC1CC(OC(=O)N2CCN(c3cnn4cc(-c5cnn(C)c5)ccc34)CC2)C1 (centres unmarked)"
  category_label: "NO"
